Source of measurements: BigSolDB 2.1

details: in DMF, 288.15 K
Measurement type: solubility (mole fraction)

{"Smiles structure": "O=Cc1cc(Br)c(O)c(Br)c1", "Reported measurement": 0.0104}

###

conditions: in ethanol, 298.15 K
Measurement type: solubility (mole fraction)

{"Smiles structure": "O=Cc1cc(Br)c(O)c(Br)c1", "Measurement type": "solubility (mole fraction)", "Reported measurement": 0.00477}

###

details: in DMSO, 303.15 K

{"Smiles structure": "O=Cc1cc(Br)c(O)c(Br)c1", "solubility (mole fraction)": 0.0115}

###

conditions: in n-butanol, 283.15 K

{"Smiles structure": "O=Cc1cc(Br)c(O)c(Br)c1", "solubility (mole fraction)": 0.00466}
